- tgt: Phosphodiesterase 1 (Homo sapiens, UniProt P54750+Q01064+Q14123)
- method: Inhibition of cAMP PDE I enzyme in guinea pig at 1E-4M concentration.
- Format: protein assay
- condition_context: Cavia porcellus; target entry is the homologue from another species
measurement_type: inhibition (%)

Below, 5 molecules whose answers are already recorded.
O=C1NN=C(c2ccc(-n3ccnc3)cc2)C2CCCCC12 (centres undefined) :: 22
CN1N=C(c2ccc(-n3ccnc3)cc2)CCC1=O :: 22
Oc1ccc(-c2ccc(-n3cnc4c3CCCC4)cc2)nn1 :: 52
CCc1nc(C)c(Br)n1-c1ccc(-c2ccc(O)nn2)cc1 :: 64
Oc1ccc(-c2ccc(-c3ncc[nH]3)cc2)nn1 :: 18

[a] CCC1CC(=O)NN=C1c1ccc(-n2ccnc2)cc1 (centres undefined)
[b] Cc1nccn1-c1ccc(C2=NNC(=O)CC2)cc1
INPUT: Lab log: flag the item ( a or b ) with the smaller inhibition figure. API: response body contains the label of the selected item.
OUTPUT: a
(a: 2%, b: 16%)

====

- tgt: Phosphodiesterase 3 (Homo sapiens, UniProt Q14432+Q13370)
- method: Inhibition of cAMP PDE III enzyme in guinea pig at 1E-4M concentration.
- Assay type: protein assay
- condition_context: Cavia porcellus; target entry is the homologue from another species
measurement_type: inhibition (%)

Below, 10 molecules whose answers are already recorded.
CCc1nc(C)cn1-c1ccc(C2=NNC(=O)CC2)cc1 :: 76
Cc1nccn1-c1ccc(C2=NNC(=O)CC2)cc1 :: 64
CN1N=C(c2ccc(-n3ccnc3)cc2)CCC1=O :: 47
CCC1CC(=O)NN=C1c1ccc(-n2ccnc2)cc1 (stereo not drawn) :: 54
Cc1cc(O)nnc1-c1ccc(-n2ccnc2)cc1 :: 64
Oc1ccc(-c2ccc(-c3ncc[nH]3)cc2)nn1 :: 69
O=C1CCC(c2ccc(NC3=NCCO3)cc2)=NN1 :: 68
O=C1CCC(c2ccc(-n3ccnc3)cc2)=NN1 :: 76
O=C1CCC(c2ccc(-n3ccnc3)cc2)=NN1Cc1ccccc1 :: 79
O=C1CCC(c2cccc(-n3ccnc3)c2)=NN1 :: 65

[P] Oc1ccc(-c2ccc(-n3ccnc3)cc2)nn1
[Q] O=C1CCC(c2ccc(-n3cncn3)cc2)=NN1
[R] O=C1NN=C(c2ccc(-n3ccnc3)cc2)C2CCCCC12 (stereo not drawn)
INPUT: Hey, quick one: sort these by inhibition, low to high? List labels; respect the requested ordering.
OUTPUT: R, Q, P

====

- tgt: cGMP-dependent 3',5'-cyclic phosphodiesterase (Homo sapiens, UniProt O00408)
- Sequence (O00408 whole entry): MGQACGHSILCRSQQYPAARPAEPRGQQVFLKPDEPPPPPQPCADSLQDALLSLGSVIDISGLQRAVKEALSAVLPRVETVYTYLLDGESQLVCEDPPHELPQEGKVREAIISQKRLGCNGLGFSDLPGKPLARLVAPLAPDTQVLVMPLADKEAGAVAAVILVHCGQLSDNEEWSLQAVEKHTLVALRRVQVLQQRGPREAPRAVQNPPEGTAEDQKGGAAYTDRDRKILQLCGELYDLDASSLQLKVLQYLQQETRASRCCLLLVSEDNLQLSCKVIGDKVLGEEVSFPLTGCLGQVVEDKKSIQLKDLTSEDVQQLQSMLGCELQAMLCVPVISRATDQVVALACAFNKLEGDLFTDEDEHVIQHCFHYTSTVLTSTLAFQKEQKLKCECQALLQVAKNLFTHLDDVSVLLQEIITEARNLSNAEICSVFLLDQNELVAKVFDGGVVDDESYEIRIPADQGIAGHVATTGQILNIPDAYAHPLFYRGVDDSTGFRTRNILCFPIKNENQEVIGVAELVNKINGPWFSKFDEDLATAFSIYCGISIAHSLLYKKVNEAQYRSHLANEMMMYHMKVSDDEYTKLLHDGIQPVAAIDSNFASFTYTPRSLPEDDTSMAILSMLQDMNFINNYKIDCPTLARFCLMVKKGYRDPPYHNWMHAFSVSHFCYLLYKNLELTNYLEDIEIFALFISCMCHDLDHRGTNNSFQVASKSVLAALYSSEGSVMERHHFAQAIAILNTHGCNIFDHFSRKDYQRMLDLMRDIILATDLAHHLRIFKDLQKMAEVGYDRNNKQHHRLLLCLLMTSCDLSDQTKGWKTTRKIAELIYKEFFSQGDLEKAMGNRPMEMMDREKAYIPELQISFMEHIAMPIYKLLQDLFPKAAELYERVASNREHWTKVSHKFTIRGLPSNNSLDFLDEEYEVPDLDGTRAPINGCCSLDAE
- method: Inhibition of cGMP PDE II enzyme in guinea pig at 1E-5M concentration
- condition_context: Cavia porcellus; target entry is the homologue from another species
measurement_type: inhibition (%)

Below, 2 compounds whose answers are already recorded.
CSc1nccn1-c1ccc(C2=NNC(=O)CC2)cc1 :: 12
Cn1nc(-c2ccc(-n3ccnc3)cc2)ccc1=O :: 12

[I] CCc1nc(C)cn1-c1ccc(C2=NNC(=O)CC2)cc1
[II] CCC1CC(=O)NN=C1c1ccc(-n2ccnc2)cc1 (configuration not stated)
[III] Cc1csc(Nc2ccc(C3=NNC(=O)CC3)cc2)n1
INPUT: Ordering criterion: inhibition; begin with the maximum. List labels; respect the requested ordering.
OUTPUT: III, II, I
(III: 23%, II: 13%, I: 9%)

[P] CC1(C)CC(c2ccc(-n3ccnc3)cc2)=NNC1=O
[Q] CC1CC(c2ccc(-n3ccnc3)cc2)=NNC1=O (configuration not stated)
INPUT: Lab log: flag the item ( P or Q ) with the smaller inhibition figure. API: response body contains the label of the selected item.
OUTPUT: Q
(Q: 7%, P: 13%)

[A] O=C1CCC(c2ccc(-n3ccnc3)cc2)=NN1Cc1ccccc1
[B] O=C1CCC(c2ccc(-n3ccnc3)cc2)=NN1 [IMAZODAN]
INPUT: Lab log: flag the item ( A or B ) with the smaller inhibition figure. API: response body contains the label of the selected item.
OUTPUT: B

[A] O=C1CCC(c2ccc(-n3cnnc3)cc2)=NN1
[B] O=C1CCC(c2ccc(-n3cnc(CO)c3)cc2)=NN1
INPUT: Lab log: flag the item ( A or B ) with the smaller inhibition figure. API: response body contains the label of the selected item.
OUTPUT: B
(B: 5%, A: 21%)

====

- tgt: cGMP-dependent 3',5'-cyclic phosphodiesterase (Homo sapiens, UniProt O00408)
- method: Inhibition of cGMP PDE II enzyme in guinea pig at 1E-5M concentration
- condition_context: Cavia porcellus; target entry is the homologue from another species
measurement_type: inhibition (%)

Below, 3 compounds whose answers are already recorded.
O=C1CCC(c2ccc(NC3=NCCO3)cc2)=NN1 :: 4
CN1N=C(c2ccc(-n3ccnc3)cc2)CCC1=O :: 1
CC1CC(=O)NN=C1c1ccc(-n2cnc3c2CCCC3)cc1 (configuration not stated) [TETRAHYDROBENXIMIDAZOLE] :: 21

[P] Oc1ccc(-c2ccc(-n3ccnc3)cc2)nn1
[Q] Cc1nccn1-c1ccc(C2=NNC(=O)CC2)cc1
[R] O=C1CCC(c2ccc(-c3nn[nH]n3)cc2)=NN1
INPUT: Ordering criterion: inhibition; begin with the maximum. List labels; respect the requested ordering.
OUTPUT: R, P, Q

[1] O=C1CCC(c2ccc(-n3cccc3)cc2)=NN1
[2] CC1CC(O)=NN=C1c1ccc(-n2ccnc2)cc1 (configuration not stated)
INPUT: Among 1 and 2 , which shows a numerically higher inhibition result? API: response body contains the label of the selected item.
OUTPUT: 1

[a] O=C1CCC(c2ccc(-n3cnc4c3CCCC4)cc2)=NN1
[b] NC(=O)c1cc(-c2ccc(-n3ccnc3)cc2)nnc1O
INPUT: Lab log: flag the item ( a or b ) with the smaller inhibition figure. API: response body contains the label of the selected item.
OUTPUT: b
(b: 15%, a: 22%)

[P] Nc1cc(-c2ccc(-n3ccnc3)cc2)nnc1O
[Q] Oc1ccc(-c2ccc(-c3ncc[nH]3)cc2)nn1
[R] O=C1CCC(c2ccc(NC3=NCCN3)cc2)=NN1
[S] O=C1CCC(c2ccc(-n3cccn3)cc2)=NN1
INPUT: Hey, quick one: sort these by inhibition, low to high? List labels; respect the requested ordering.
OUTPUT: Q, P, R, S
(Q: 7%, P: 10%, R: 16%, S: 27%)

====

- tgt: PDE I (Cavia porcellus)
- method: Inhibitory concentration against cGMP PDE I enzyme in guinea pig
measurement_type: IC50 (µM)

CC1CC(=O)NN=C1c1ccc(-n2cnc3c2CCCC3)cc1 (configuration not stated) [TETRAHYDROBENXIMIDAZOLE] :: 85

[A] Cc1nccn1-c1ccc(C2=NNC(=O)CC2)cc1
[B] O=C1CCC(c2ccc(-n3cnc4ccccc43)cc2)=NN1
INPUT: Among A and B , which shows a numerically higher IC50 result? API: response body contains the label of the selected item.
OUTPUT: A

====

Readings of IC50 for the listed compounds
- tgt: PDE I (Cavia porcellus)
- method: Inhibitory concentration against cAMP PDE I enzyme in guinea pig

Below, 2 compounds whose answers are already recorded.
CN1N=C(c2ccc(-n3ccnc3)cc2)CCC1=O :: > 1000 µM
CCC1CC(=O)NN=C1c1ccc(-n2ccnc2)cc1 (stereo not drawn) :: > 1000 µM

We now examine a further compound.
INPUT: What value of IC50 has been recorded for this entry: `Nc1cc(-c2ccc(-n3ccnc3)cc2)nnc1O`
OUTPUT: > 500 µM

====

- tgt: Phosphodiesterase 1 (Homo sapiens, UniProt P54750+Q01064+Q14123)
- method: Inhibition of cAMP PDE I enzyme in guinea pig at 1E-5M concentration
- Type: protein assay
- condition_context: Cavia porcellus; target entry is the homologue from another species
measurement_type: inhibition (%)

Below, 10 molecules whose answers are already recorded.
CC1CC(c2ccc(-n3ccnc3)cc2)=NNC1=O (stereo unspecified) :: 0
CSc1nccn1-c1ccc(C2=NNC(=O)CC2)cc1 :: 7
O=C1CCC(c2ccc(-n3cncn3)cc2)=NN1 :: 7
O=C1CCC(c2ccc(-n3cccn3)cc2)=NN1 :: 12
O=C1CCC(c2ccc(-n3cnnc3)cc2)=NN1 :: 29
O=C1CCC(c2ccc(NC3=NCCN3)cc2)=NN1 :: 33
O=C1CCC(c2ccc(-n3ccnc3)cc2)=NN1Cc1ccccc1 :: 1
CCc1nc(C)cn1-c1ccc(C2=NNC(=O)CC2)cc1 :: 9
CC1CC(=O)NN=C1c1ccc(-n2cnc3c2CCCC3)cc1 (stereo unspecified) [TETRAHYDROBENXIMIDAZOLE] :: 13
O=C1CCC(c2ccc(NC3=NCCO3)cc2)=NN1 :: 3

[a] Cc1nccn1-c1ccc(C2=NNC(=O)CC2)cc1
[b] Cc1cc(O)nnc1-c1ccc(-n2ccnc2)cc1
[c] NNC(=O)c1cc(-c2ccc(-n3ccnc3)cc2)nnc1O
[d] CC1CC(O)=NN=C1c1ccc(-n2ccnc2)cc1 (stereo unspecified) [CI-930]
[e] CC1(C)CC(=O)NN=C1c1ccc(-n2ccnc2)cc1
INPUT: Ordering criterion: inhibition; begin with the maximum. List labels; respect the requested ordering.
OUTPUT: c, d, e, a, b
(c: 6%, d: 3%, e: 2%, a: 1%, b: 0%)

[A] O=C1CCC(c2ccc(-n3cnc(CO)c3)cc2)=NN1
[B] O=C1CCC(c2ccc(-n3ccnc3)cc2)=NN1 [IMAZODAN]
INPUT: Among A and B , which shows a numerically higher inhibition result? API: response body contains the label of the selected item.
OUTPUT: B

[a] Oc1ccc(-c2ccc(-c3ncc[nH]3)cc2)nn1
[b] Oc1ccc(-c2ccc(-n3ccnc3)cc2)nn1
INPUT: Lab log: flag the item ( a or b ) with the smaller inhibition figure. API: response body contains the label of the selected item.
OUTPUT: b
